# TEST TARGET: typical adenosine A2A receptors (Rattus norvegicus)
# Sequence (P30543 whole entry): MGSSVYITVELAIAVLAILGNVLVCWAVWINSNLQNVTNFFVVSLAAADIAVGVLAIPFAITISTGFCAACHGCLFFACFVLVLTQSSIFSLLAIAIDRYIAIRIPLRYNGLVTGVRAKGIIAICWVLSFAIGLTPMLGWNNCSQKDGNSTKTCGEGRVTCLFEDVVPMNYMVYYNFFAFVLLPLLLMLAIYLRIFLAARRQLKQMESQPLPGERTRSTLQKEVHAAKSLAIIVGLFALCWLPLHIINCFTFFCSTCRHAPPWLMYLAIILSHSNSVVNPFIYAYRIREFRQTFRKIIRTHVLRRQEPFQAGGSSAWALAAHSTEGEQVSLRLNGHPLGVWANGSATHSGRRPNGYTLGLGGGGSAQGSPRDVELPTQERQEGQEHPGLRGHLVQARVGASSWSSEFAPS
# TEST: Displacement of [3H]CGS21680 binding in rat striatum in the presence of DPCPX (typical sites)
# SETUP CONDITIONS: Figure 2; rat striatum; 100 nmol/L DPCPX; (95% CI)
QUANTITY KIND: pIC50
Please report pIC50 as the negative decimal logarithm of the molar concentration, giving only the number.

typical adenosine A2A receptors (Rattus norvegicus) assay, compound CCCCc1nc(N)c2nc(-n3nccn3)n(C)c2n1 [ST1535] , recorded pIC50 = 6.93

---

# TEST TARGET: atypical adenosine A2A receptors
# TEST: Displacement of [3H]CGS21680 binding in rat striatum in the presence of CSC (atypical sites)
QUANTITY KIND: Ki (nM)
Quick reminder: number only, in nM, skip the unit.

The measured Ki associated with CCn1c(=O)c2c(nc(/C=C/c3ccc(OC)c(OC)c3)n2C)n(CC)c1=O [KW6002, reference compound] reads 74.2
